target: hFXR (Homo sapiens, UniProt Q96RI1); test: In Vitro FXR Assay (TK): TK-ECRE-luc reporter in transfected CV-1 cells; conditions: 18 hrs, luminescence, maximum efficacy of <25% of the Fexarmine control classified as '+'
The entries below are paired with their reported EC50.

{"molecule": "CCCC(=O)N[C@H]1CC[C@H](C(=O)N(C[C@H]2CC[C@H](c3ccc(OC)c(C)c3)CC2)c2cccc(-c3cnc(C4CC4)s3)c2)CC1", "EC50": "≤ 0.25 µM"}

Input line: Check the records and state EC50 for "COc1ccc([C@H]2CC[C@H](CN(c3cc(-c4coc(C5CC5)n4)ccn3)C(=O)[C@H]3CC[C@H](OC(=O)N4CC(OC(C)C)C4)CC3)CC2)nc1C"
Output line: ≤ 0.25 µM

Input line: Consider the molecule "COc1ccc([C@H]2CC[C@H](CN(c3cccc(-c4cnn(C5CC5)c4)c3)C(=O)[C@H]3CC[C@H](C(=O)NCCO)CC3)CC2)cc1C" . State its measured EC50.
Output line: 0.25 to 1 µM

Input line: Name the recorded EC50 of the molecule listed here: "COc1ccc([C@H]2CC[C@H](CN(c3cc(-c4coc(C5CC5)n4)ccn3)C(=O)[C@H]3CC[C@H](OC(=O)NCCO)CC3)CC2)nc1C"
Output line: ≤ 0.25 µM

Input line: Quick one: give measured EC50 for "COc1ccc([C@H]2CC[C@H](CN(c3cccc(-c4cnc(C5CC5)s4)c3)C(=O)[C@H]3CC[C@H](NC(=O)CNS(C)(=O)=O)CC3)CC2)cc1C"
Output line: ≤ 0.25 µM

Input line: Return the recorded EC50 value; entry: CNC(=O)O[C@H]1CC[C@@H](C(=O)N(CC2CCC(c3ccc(OC)c(C#N)c3)CC2)c2cc(-c3cnn(C(C)C)c3)ccn2)CC1 (some centres unmarked)
Output line: ≤ 0.25 µM

Input line: Consider the molecule COc1ccc([C@H]2CC[C@H](CN(c3cc(-c4coc(C5CC5)n4)ccn3)C(=O)[C@H]3CC[C@H](NC(=O)C4CC(OC)C4)CC3)CC2)nc1C (some centres unmarked) . State its measured EC50.
Output line: ≤ 0.25 µM

Input line: Tell us which EC50 value is on record for "CCOC(=O)C[C@H]1CC[C@H](C(=O)N(C[C@H]2CC[C@H](c3ccc(OC)c(C#N)n3)CC2)c2cc(-c3cnn(C(C)C)c3)ccn2)CC1"
Output line: ≤ 0.25 µM

Input line: Supply EC50 value. Item: "COC(=O)N[C@H]1CC[C@H](C(=O)N(C[C@H]2CC[C@H](c3ccc(OC)c(C)c3)CC2)c2cccc(-c3cnn(C4CC4)c3)c2)CC1"
Output line: ≤ 0.25 µM

Input line: Give the measured EC50 for "COc1ccc([C@H]2CC[C@H](CN(c3cccc(-c4coc(C5CC5)n4)c3)C(=O)[C@H]3CC[C@H](OC(=O)NCCO)CC3)CC2)cc1C"
Output line: ≤ 0.25 µM

Input line: Return EC50 (reported value) for this molecule: "COc1ccc([C@H]2CC[C@H](CN(c3cccc(-c4cnn(C(C)C)c4)c3)C(=O)[C@H]3CC[C@H](OC(=O)N4CCN(C)CC4)CC3)CC2)nc1C"
Output line: ≤ 0.25 µM

* * *

molecular target: hFXR (Homo sapiens); assay: In Vitro FXR Assay (TK): TK-ECRE-luc reporter in transfected CV-1 cells; conditions: 18 hrs, luminescence, maximum efficacy of <25% of the Fexarmine control classified as '+'
quantity_kind: EC50

Worked examples, 4 molecules total:
{"molecule": "COc1ccc([C@H]2CC[C@H](CN(c3cccc(-c4cnc(C5CC5)s4)c3)C(=O)[C@H]3CC[C@H](OC(=O)N4CC(O)C4)CC3)CC2)nc1C#N [Compound 7.09]", "EC50": "≤ 250 nM"}
{"molecule": "COc1ccc([C@H]2CC[C@H](CN(c3cccc(-c4cnn(C5CC5)c4)c3)C(=O)[C@H]3CC[C@H](OC(=O)N4CC(S(C)(=O)=O)C4)CC3)CC2)cc1C [Compound 6.29]", "EC50": "≤ 250 nM"}
{"molecule": "COc1ccc([C@H]2CC[C@H](CN(c3cc(-c4coc(C5CC5)n4)ccn3)C(=O)[C@H]3CC[C@H](OC(=O)NCC(C)(C)O)CC3)CC2)nc1C [Compound 6.70]", "EC50": "≤ 250 nM"}
{"molecule": "COc1ccc([C@H]2CC[C@H](CN(c3cccc(-c4cnn(C5CC5)c4)c3)C(=O)[C@H]3CC[C@H](OC(=O)N4CCN(C)CC4)CC3)CC2)cc1C [Compound 6.25]", "EC50": "≤ 250 nM"}

Would you kindly look at the next entry?
Input line: Determine its reported EC50: CNC(=O)O[C@H]1CC[C@H](C(=O)N(C[C@H]2CC[C@H](c3ccc(OC)c(C)n3)CC2)c2cc(-c3coc(C4CC4)n3)ccn2)CC1 [Compound 5.34]
Output line: ≤ 250 nM

* * *

The following molecules are shown together with reported EC50 values.
Target: hFXR (Homo sapiens, UniProt Q96RI1)
Assay: In Vitro FXR Assay (TK): TK-ECRE-luc reporter in transfected CV-1 cells
Settings: 18 hrs, luminescence, maximum efficacy of <25% of the Fexarmine control classified as '+'
Experimental: CV-1 cells were seeded at a density of 2,000,000 cells in a T175 flask with DMEM+10% charcoal double-stripped FBS and incubated at 37° C. in 5% CO2 for 18 h (O/N). After 18 h of incubation, the medium in the T175 flask was changed with fresh DMEM+10% charcoal super-stripped serum. […] Compounds were serially diluted in DMSO and added to transfected CV-1 cells. […] The next day cells were lysed and examined for luminescence.

Input line: State its EC50 for this molecule: "CNC(=O)O[C@H]1CC[C@H](C(=O)N(C[C@H]2CC[C@H](c3ccc(OC)c(C)c3)CC2)c2cccc(-c3cnn(C(C)C)c3)c2)CC1"
Output line: ≤ 250 nM

Input line: For "COc1ncc(-c2cccc(N(C[C@H]3CC[C@H](c4ccc(OC)c(C)c4)CC3)C(=O)[C@H]3CC[C@H](NC(C)=O)CC3)c2)s1" , write its EC50.
Output line: ≤ 250 nM

Input line: Give reported EC50 value for "COc1ccc([C@H]2CC[C@H](CN(c3cccc(-c4cnn(C(C)C)c4)c3)C(=O)[C@H]3CC[C@H](CC(=O)O)CC3)CC2)cc1C"
Output line: ≤ 250 nM

* * *

Target: hFXR (Homo sapiens, UniProt Q96RI1)
Assay: In Vitro FXR Assay (TK): TK-ECRE-luc reporter in transfected CV-1 cells
Conditions: 18 hrs, luminescence, maximum efficacy of <25% of the Fexarmine control classified as '+'
Experimental: CV-1 cells were seeded at a density of 2,000,000 cells in a T175 flask with DMEM+10% charcoal double-stripped FBS and incubated at 37° C. in 5% CO2 for 18 h (O/N). After 18 h of incubation, the medium in the T175 flask was changed with fresh DMEM+10% charcoal super-stripped serum. […] Compounds were serially diluted in DMSO and added to transfected CV-1 cells. […] The next day cells were lysed and examined for luminescence.
quantity_kind: EC50

Use the examples below as a reference point.
{"compound": "COc1ccc([C@H]2CC[C@H](CN(c3cc(-c4cnc(C5CC5)s4)ccn3)C(=O)[C@H]3CC[C@H](OC(=O)NCCO)CC3)CC2)cc1C [Compound 6.02]", "EC50": "≤ 250 nM"}
{"compound": "COc1ccc([C@H]2CC[C@H](CN(c3cc(-c4cnn(C5CC5)c4)ccn3)C(=O)[C@H]3CC[C@H](C(=O)OC)CC3)CC2)nc1C [Compound 18.17]", "EC50": "250 to 1000 nM"}
{"compound": "COc1ccc([C@H]2CC[C@H](CN(c3cccc(-c4cnn(C5CC5)c4)c3)C(=O)[C@H]3CC[C@H](OC(=O)NC4CN(C(=O)OC(C)(C)C)C4)CC3)CC2)cc1C [Compound 4.17]", "EC50": "≤ 250 nM"}

Input line: Return EC50 (reported value) for this compound: COc1ccc([C@H]2CC[C@H](CN(c3cc(-c4cnn(C(C)C)c4)ccn3)C(=O)[C@H]3CC[C@H](OC(=O)N4CC(CO)C4)CC3)CC2)cc1C#N [Compound 7.51]
Output line: ≤ 250 nM

Input line: Answer with reported EC50 of COc1ccc([C@H]2CC[C@H](CN(c3cc(-c4cnc(C(C)C)s4)ccn3)C(=O)[C@H]3CC[C@H](OC(=O)N4CC(O)C4)CC3)CC2)nc1C [Compound 7.07]
Output line: ≤ 250 nM

* * *

Biological target: hFXR (Homo sapiens, UniProt Q96RI1)
Sequence (Q96RI1 1-486): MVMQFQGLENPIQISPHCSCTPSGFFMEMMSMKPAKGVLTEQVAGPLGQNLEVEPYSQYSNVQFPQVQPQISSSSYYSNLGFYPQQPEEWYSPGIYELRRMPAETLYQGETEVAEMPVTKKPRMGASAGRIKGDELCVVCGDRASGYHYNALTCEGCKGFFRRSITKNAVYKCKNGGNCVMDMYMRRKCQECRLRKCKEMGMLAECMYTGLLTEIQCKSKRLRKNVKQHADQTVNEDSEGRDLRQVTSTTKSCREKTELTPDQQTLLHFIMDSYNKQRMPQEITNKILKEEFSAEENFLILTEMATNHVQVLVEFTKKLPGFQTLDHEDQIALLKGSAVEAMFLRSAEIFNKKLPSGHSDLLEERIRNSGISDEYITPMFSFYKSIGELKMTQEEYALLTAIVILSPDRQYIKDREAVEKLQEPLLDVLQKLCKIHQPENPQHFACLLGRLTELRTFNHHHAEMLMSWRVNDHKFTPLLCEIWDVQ
Sequence (P19793 1-462 partner): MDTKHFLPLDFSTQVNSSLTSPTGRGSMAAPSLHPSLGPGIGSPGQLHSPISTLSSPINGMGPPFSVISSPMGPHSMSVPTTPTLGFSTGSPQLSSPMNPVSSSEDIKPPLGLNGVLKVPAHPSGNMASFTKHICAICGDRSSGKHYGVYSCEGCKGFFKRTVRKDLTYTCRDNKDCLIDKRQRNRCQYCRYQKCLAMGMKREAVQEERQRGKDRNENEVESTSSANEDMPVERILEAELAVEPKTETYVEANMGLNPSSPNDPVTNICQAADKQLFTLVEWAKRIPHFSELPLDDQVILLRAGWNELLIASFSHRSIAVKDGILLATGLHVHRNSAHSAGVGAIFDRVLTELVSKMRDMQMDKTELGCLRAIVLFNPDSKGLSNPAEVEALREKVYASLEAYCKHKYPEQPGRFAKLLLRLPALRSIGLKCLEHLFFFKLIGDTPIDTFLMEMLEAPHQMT
Assay: In Vitro FXR Assay (TK): TK-ECRE-luc reporter in transfected CV-1 cells
Conditions: 18 hrs, luminescence, maximum efficacy of <25% of the Fexarmine control classified as '+'
Experimental: CV-1 cells were seeded at a density of 2,000,000 cells in a T175 flask with DMEM+10% charcoal double-stripped FBS and incubated at 37° C. in 5% CO2 for 18 h (O/N). After 18 h of incubation, the medium in the T175 flask was changed with fresh DMEM+10% charcoal super-stripped serum. […] Compounds were serially diluted in DMSO and added to transfected CV-1 cells. […] The next day cells were lysed and examined for luminescence.
pEC50: −log10 of the molar value. Structures can show the parent of a compound that is named as a salt.
Examples of compounds with documented pEC50 follow.

Example compounds with recorded pEC50:
{"compound": "COc1ccc([C@H]2CC[C@H](CN(c3cccc(-c4cnn(C5CC5)c4)c3)C(=O)[C@H]3CC[C@H](OC(=O)NCCCN(C)C)CC3)CC2)cc1C", "tested_system": "hFXR (Homo sapiens, UniProt Q96RI1)", "quantity_kind": "pEC50", "recorded_value": "≥ 6.60"}
{"compound": "COc1ccc([C@H]2CC[C@H](CN(c3cc(-c4coc(C(C)C)n4)ccn3)C(=O)[C@H]3CC[C@H](OC(=O)N4CC(OC)C4)CC3)CC2)nc1C", "tested_system": "hFXR (Homo sapiens, UniProt Q96RI1)", "quantity_kind": "pEC50", "recorded_value": "≥ 6.60"}
{"compound": "COc1ncc([C@H]2CC[C@H](CN(c3cccc(-c4cnn(C5CC5)c4)c3)C(=O)[C@H]3CC[C@H](OC(=O)NCCO)CC3)CC2)cc1Cl", "tested_system": "hFXR (Homo sapiens, UniProt Q96RI1)", "quantity_kind": "pEC50", "recorded_value": "≥ 6.60"}
{"compound": "COc1ccc([C@H]2CC[C@H](CN(c3cccc(-c4cnc(C5CC5)s4)c3)C(=O)[C@H]3CC[C@H](NC(=O)CC[S+](C)[O-])CC3)CC2)cc1C (some centres unmarked)", "tested_system": "hFXR (Homo sapiens, UniProt Q96RI1)", "quantity_kind": "pEC50", "recorded_value": "6.00 to 6.60"}
{"compound": "COc1ccc([C@H]2CC[C@H](CN(c3cccc(-c4coc(C5CC5)n4)c3)C(=O)[C@H]3CC[C@H](C(=O)OC)CC3)CC2)nc1C#N", "tested_system": "hFXR (Homo sapiens, UniProt Q96RI1)", "quantity_kind": "pEC50", "recorded_value": "≥ 6.60"}

Input line: Give pEC50 for CNCCO[C@H]1CC[C@H](C(=O)N(C[C@H]2CC[C@H](c3ccc(OC)c(C)c3)CC2)c2cccc(-c3cnc(C4CC4)s3)c2)CC1 [Compound 11, hydrochloride]
Output line: 6.00 to 6.60

Input line: Tell me its pEC50 given "CCN(CCO)C(=O)O[C@H]1CC[C@H](C(=O)N(C[C@H]2CC[C@H](c3ccc(OC)c(C)n3)CC2)c2cc(-c3coc(C4CC4)n3)ccn2)CC1" as the entry.
Output line: ≥ 6.60

Input line: Identify pEC50 associated with the compound "COc1ccc([C@H]2CC[C@H](CN(c3cccc(-c4cnn(C5CC5)c4)c3)C(=O)[C@H]3CC[C@H](NC(=O)OCCO)CC3)CC2)cc1C"
Output line: ≥ 6.60

Input line: Consider the compound COc1ccc([C@H]2CC[C@H](CN(c3cccc(-c4cnn(C5CC5)c4)c3)C(=O)[C@H]3CC[C@H](NC(=O)C[S+](C)[O-])CC3)CC2)cc1C (some centres unmarked) and give its recorded pEC50.
Output line: 6.00 to 6.60

Input line: Specify pEC50 for "CCOC(=O)C[C@H]1CC[C@H](C(=O)N(C[C@H]2CC[C@H](c3ccc(OC)c(C#N)c3)CC2)c2cc(-c3cnn(C(C)C)c3)ccn2)CC1" and stop.
Output line: ≥ 6.60

Input line: // fetch pEC50 given entry "CNC(=O)O[C@H]1CC[C@H](C(=O)N(C[C@H]2CC[C@H](c3ccc(OC)c(C)c3)CC2)c2cccc(-c3cnn(C4CC4)c3)c2)CC1"
Output line: ≥ 6.60
